// pIC50 lookup, one value per entry
Molecular target: PfCDPK1 (Plasmodium falciparum)
Sequence (P62344 whole entry): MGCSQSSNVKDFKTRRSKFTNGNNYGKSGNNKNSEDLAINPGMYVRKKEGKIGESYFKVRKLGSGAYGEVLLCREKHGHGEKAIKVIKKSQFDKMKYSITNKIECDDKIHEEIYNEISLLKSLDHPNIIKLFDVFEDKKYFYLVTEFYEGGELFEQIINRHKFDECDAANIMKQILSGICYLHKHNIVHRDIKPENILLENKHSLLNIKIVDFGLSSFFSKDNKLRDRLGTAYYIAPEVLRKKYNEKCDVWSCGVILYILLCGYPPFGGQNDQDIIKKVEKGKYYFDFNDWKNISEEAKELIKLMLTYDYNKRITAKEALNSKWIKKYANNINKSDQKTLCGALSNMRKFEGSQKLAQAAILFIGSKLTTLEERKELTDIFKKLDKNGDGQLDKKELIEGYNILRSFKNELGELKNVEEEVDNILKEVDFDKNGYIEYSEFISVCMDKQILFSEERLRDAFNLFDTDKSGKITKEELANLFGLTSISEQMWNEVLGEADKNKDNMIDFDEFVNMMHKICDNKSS
Test: PfCDPK1 enzyme inhibition (Kinase-Glo ATP depletion)
Conditions: isolated recombinant enzyme
pIC50: −log10 of the molar value.
measuredQuantity: pIC50

[[record]]
compound = "Fc1cccc(-c2cnc3ccc(NCCc4cccnc4)nn23)c1 [Compound 5]"
numericreadout = 7.10

[[record]]
compound = "CC(=O)Nc1cccc(-c2cnc3ccc(NCCc4ccccn4)nn23)c1 [Compound 3]"
numericreadout = 7.18

[[record]]
compound = "CC(C)CCNc1ccc(-c2cnc3ccc(N4CCC(N)CC4)nn23)cn1 [Compound 28]"
numericreadout = 7.89

[[record]]
compound = "CC(C)CCNc1cc(-c2cnc3ccc(NC4CCN(C)CC4)nn23)ccn1 [Compound 21]"
numericreadout = 7.06

[[record]]
compound = "CC(=O)Nc1cccc(-c2cnc3ccc(N[C@H]4CC[C@H](N)CC4)nn23)c1 [Compound 6]"
numericreadout = 7.96

[[record]]
compound = "CC(C)CCNc1ccc(-c2cnc3ccc(NC4CCNCC4)nn23)cn1 [Compound 29]"
numericreadout = 7.82

[[record]]
compound = "CC(C)CCNc1ccc(-c2cnc3ccc(N4CCC(N(C)C)CC4)nn23)cn1 [Compound 27]"
numericreadout = 7.36

[[record]]
compound = "CC(C)CCNC(=O)c1ccc(-c2cnc3ccc(NC4CCN(C)CC4)nn23)cc1 [Compound 10]"
numericreadout = 7.64

[[record]]
compound = "CC(C)CCNc1ncc(-c2cnc3ccc(N[C@H]4CC[C@H](N)CC4)nn23)cn1 [Compound 32]"
numericreadout = 7.80

